tested on: MPNST complex spheroid with HUVEC/MSC, growth, % test/control; assay: Anticancer human tumor MPNST cell line growth inhibition [Asc]; settings: second compound 0.316 µM; first compound 3.16 µM; active compounds read low;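 also: compounds left on spheroids for seven days before reading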
property_name: viability, T/C

Query string: Query for MPNST complex spheroid with HUVEC/MSC, growth, % test/control: what viability, T/C does the record show for C=C(F)C(=O)N1CCN(c2nc(OCC3CCCN3C)nc3c2CCN(c2cccc4cccc(Cl)c24)C3)CC1CC#N (stereo not drawn) + CNC(C)C(=O)NC1CN(S(=O)(=O)c2cccc(S(=O)(=O)N3CCC4CCC(C(=O)NC(c5ccccc5)c5ccccc5)N4C(=O)C(NC(=O)C(C)NC)C3)c2)CCC2CCC(C(=O)NC(c3ccccc3)c3ccccc3)N2C1=O ?
Result string: 57%

Query string: Query for MPNST complex spheroid with HUVEC/MSC, growth, % test/control: what viability, T/C does the record show for C=C(F)C(=O)N1CCN(c2nc(OCC3CCCN3C)nc3c2CCN(c2cccc4cccc(Cl)c24)C3)CC1CC#N (stereo not drawn) + Cc1c(S(C)(=O)=O)c(-c2cc(F)cc(N3CCN(c4ccc(NS(=O)(=O)c5ccc(NC(CCN6CCC(C(=O)OCCCP(=O)(O)O)CC6)CSc6ccccc6)c(S(=O)(=O)C(F)(F)F)c5)cc4)CC3)c2)c(-c2ccc(Cl)cc2)n1C(C)C ?
Result string: 52.4%

Query string: Query for MPNST complex spheroid with HUVEC/MSC, growth, % test/control: what viability, T/C does the record show for O=C(c1cc(Cc2n[nH]c(=O)c3ccccc23)ccc1F)N1CCN(C(=O)C2CC2)CC1 + Cc1c(S(C)(=O)=O)c(-c2cc(F)cc(N3CCN(c4ccc(NS(=O)(=O)c5ccc(NC(CCN6CCC(C(=O)OCCCP(=O)(O)O)CC6)CSc6ccccc6)c(S(=O)(=O)C(F)(F)F)c5)cc4)CC3)c2)c(-c2ccc(Cl)cc2)n1C(C)C ?
Result string: 60.8%

Query string: Query for MPNST complex spheroid with HUVEC/MSC, growth, % test/control: what viability, T/C does the record show for C=CC(=O)N1CCN(c2nc(=O)n(-c3c(C)ccnc3C(C)C)c3nc(-c4c(O)cccc4F)c(F)cc23)C(C)C1 (stereo not drawn) + CNC(C)C(=O)NC1CN(S(=O)(=O)c2cccc(S(=O)(=O)N3CCC4CCC(C(=O)NC(c5ccccc5)c5ccccc5)N4C(=O)C(NC(=O)C(C)NC)C3)c2)CCC2CCC(C(=O)NC(c3ccccc3)c3ccccc3)N2C1=O ?
Result string: 115%

Query string: Query for MPNST complex spheroid with HUVEC/MSC, growth, % test/control: what viability, T/C does the record show for O=C(c1cc(Cc2n[nH]c(=O)c3ccccc23)ccc1F)N1CCN(C(=O)C2CC2)CC1 + CNC(C)C(=O)NC1CN(S(=O)(=O)c2cccc(S(=O)(=O)N3CCC4CCC(C(=O)NC(c5ccccc5)c5ccccc5)N4C(=O)C(NC(=O)C(C)NC)C3)c2)CCC2CCC(C(=O)NC(c3ccccc3)c3ccccc3)N2C1=O ?
Result string: 41.8%

Query string: Query for MPNST complex spheroid with HUVEC/MSC, growth, % test/control: what viability, T/C does the record show for C#Cc1c(F)ccc2cc(O)cc(-c3ncc4c(N5CC6CCC(C5)N6)nc(OCC56CCCN5CC(F)C6)nc4c3F)c12 (stereo not drawn) + CNC(C)C(=O)NC1CN(S(=O)(=O)c2cccc(S(=O)(=O)N3CCC4CCC(C(=O)NC(c5ccccc5)c5ccccc5)N4C(=O)C(NC(=O)C(C)NC)C3)c2)CCC2CCC(C(=O)NC(c3ccccc3)c3ccccc3)N2C1=O ?
Result string: 60.3%

Query string: Query for MPNST complex spheroid with HUVEC/MSC, growth, % test/control: what viability, T/C does the record show for C=CC(=O)N1CCN(c2nc(=O)n(-c3c(C)ccnc3C(C)C)c3nc(-c4c(O)cccc4F)c(F)cc23)C(C)C1 (stereo not drawn) + Cc1c(S(C)(=O)=O)c(-c2cc(F)cc(N3CCN(c4ccc(NS(=O)(=O)c5ccc(NC(CCN6CCC(C(=O)OCCCP(=O)(O)O)CC6)CSc6ccccc6)c(S(=O)(=O)C(F)(F)F)c5)cc4)CC3)c2)c(-c2ccc(Cl)cc2)n1C(C)C ?
Result string: 85.7%

Query string: Query for MPNST complex spheroid with HUVEC/MSC, growth, % test/control: what viability, T/C does the record show for C#Cc1c(F)ccc2cc(O)cc(-c3ncc4c(N5CC6CCC(C5)N6)nc(OCC56CCCN5CC(F)C6)nc4c3F)c12 (stereo not drawn) + Cc1c(S(C)(=O)=O)c(-c2cc(F)cc(N3CCN(c4ccc(NS(=O)(=O)c5ccc(NC(CCN6CCC(C(=O)OCCCP(=O)(O)O)CC6)CSc6ccccc6)c(S(=O)(=O)C(F)(F)F)c5)cc4)CC3)c2)c(-c2ccc(Cl)cc2)n1C(C)C ?
Result string: 91%

Measured values drawn from PubChem BioAssay AID1963442 for this set.
